test_target: Growth factor receptor-bound protein 2 (Mus musculus) (UniProt Q60631)
Sequence (Q60631 whole entry): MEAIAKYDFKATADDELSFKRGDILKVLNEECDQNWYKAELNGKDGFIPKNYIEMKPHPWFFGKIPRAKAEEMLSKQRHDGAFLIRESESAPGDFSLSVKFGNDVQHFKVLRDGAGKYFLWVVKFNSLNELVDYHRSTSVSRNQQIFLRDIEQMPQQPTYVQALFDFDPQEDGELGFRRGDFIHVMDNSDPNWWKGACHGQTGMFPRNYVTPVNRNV
run_description: In vitro inhibitory activity against Shc/Grb2 interactions in B104-1-1 cells at 5 uM
Assay type: functional, cell-based
readout_name: inhibition (%)
Answers are plain numbers, in %.

COc1ccc(C[C@@H]2NC(=O)CN(C)C(=O)[C@@H]3CCCN3C(=O)[C@@H](C(C)C)NC(=O)[C@@H](NC(=O)c3c4nc5c(C(=O)N[C@@H]6C(=O)N[C@H](C(C)C)C(=O)N7CCC[C@H]7C(=O)N(C)CC(=O)N[C@@H](Cc7ccc(OC)cc7)C(=O)O[C@@H]6C)ccc(C)c5oc-4c(C)c(=O)c3N)[C@@H](C)OC2=O)cc1 : 73.8

// below: inhibition requested for another compound
Entry Cc1c2oc3c(C)ccc(C(=O)N[C@@H]4C(=O)N[C@H](Cc5ccccc5)C(=O)N5CCC[C@H]5C(=O)N(C)CC(=O)N[C@@H](C(C)C)C(=O)O[C@@H]4C)c3nc-2c(C(=O)N[C@@H]2C(=O)N[C@H](Cc3ccccc3)C(=O)N3CCC[C@H]3C(=O)N(C)CC(=O)N[C@@H](C(C)C)C(=O)O[C@@H]2C)c(N)c1=O , system Growth factor receptor-bound protein 2 (Mus musculus) (UniProt Q60631): what inhibition was measured? 82.8
